- Target Of Assay: Voltage-gated inwardly rectifying potassium channel KCNH2 (Homo sapiens)
- Experiment Description: hERG protection against dofetilide inhibition, confirmation, cell-based, thallium flux, duplicate retest, dofetilide IC70 (AID 1835)
- Assay Conditions: hERG cell line, FluxOR thallium flux, dofetilide-blocked; at 10 µM
The campaign covered roughly 2,400 compounds. About 750 (31%) were called active.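 Rule for the calls: active = median signal gain over dofetilide-blocked control wells reaching their mean plus 3 SD, so readout 1 at least 0; inactive = the rest.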 The list shows a part of the results.
A correct response names exactly one class from YES (active), NO (inactive)

Some entries whose results are on file:
# Molecule, Target Of Assay, Category Label
rows = [
    ("Cc1[nH]n2c(=O)cc(C(C)(C)C)nc2c1-c1ccccc1", "Voltage-gated inwardly rectifying potassium channel KCNH2 (Homo sapiens)", "YES"),
    ("CC1(C)CC2(CCO1)C(Nc1ccccc1)=NC(=S)N2CC(N)=O (stereo not given)", "Voltage-gated inwardly rectifying potassium channel KCNH2 (Homo sapiens)", "NO"),
]

Q: In this assay, the call recorded for O=C(/C=C/c1ccccc1)Nc1ccc(S(=O)(=O)N2CCOCC2)cc1 was what?
A: NO

Q: Here is the next molecule: Cc1ccc(NC(=O)c2ccc3c(c2)CCN3S(C)(=O)=O)c(C)c1
A: NO

Q: Here is the next molecule: CC1(C)Cc2c(sc3[nH]c(=S)n(Cc4ccccc4)c(=O)c23)CO1
A: NO

Q: Here is the next molecule: CCOC(=O)C1CCN(S(=O)(=O)c2cccc3nonc23)CC1
A: YES

Q: Here is the next molecule: CC(C)(C)NC(=O)CN(C(=O)CS(=O)CC(=O)Nc1ccc(F)cc1)c1cccc(F)c1 (stereo not given)
A: NO

Q: Here is the next molecule: Cc1ccc(NS(=O)(=O)c2cn(C)c(=O)n(C)c2=O)c(C)c1
A: YES

----------
# reported activity increase over dofetilide control, less the hit threshold; entries follow
- Target Of Assay: Voltage-gated inwardly rectifying potassium channel KCNH2 (Homo sapiens) (UniProt Q12809)
- Sequence (Q12809 whole entry, looked up): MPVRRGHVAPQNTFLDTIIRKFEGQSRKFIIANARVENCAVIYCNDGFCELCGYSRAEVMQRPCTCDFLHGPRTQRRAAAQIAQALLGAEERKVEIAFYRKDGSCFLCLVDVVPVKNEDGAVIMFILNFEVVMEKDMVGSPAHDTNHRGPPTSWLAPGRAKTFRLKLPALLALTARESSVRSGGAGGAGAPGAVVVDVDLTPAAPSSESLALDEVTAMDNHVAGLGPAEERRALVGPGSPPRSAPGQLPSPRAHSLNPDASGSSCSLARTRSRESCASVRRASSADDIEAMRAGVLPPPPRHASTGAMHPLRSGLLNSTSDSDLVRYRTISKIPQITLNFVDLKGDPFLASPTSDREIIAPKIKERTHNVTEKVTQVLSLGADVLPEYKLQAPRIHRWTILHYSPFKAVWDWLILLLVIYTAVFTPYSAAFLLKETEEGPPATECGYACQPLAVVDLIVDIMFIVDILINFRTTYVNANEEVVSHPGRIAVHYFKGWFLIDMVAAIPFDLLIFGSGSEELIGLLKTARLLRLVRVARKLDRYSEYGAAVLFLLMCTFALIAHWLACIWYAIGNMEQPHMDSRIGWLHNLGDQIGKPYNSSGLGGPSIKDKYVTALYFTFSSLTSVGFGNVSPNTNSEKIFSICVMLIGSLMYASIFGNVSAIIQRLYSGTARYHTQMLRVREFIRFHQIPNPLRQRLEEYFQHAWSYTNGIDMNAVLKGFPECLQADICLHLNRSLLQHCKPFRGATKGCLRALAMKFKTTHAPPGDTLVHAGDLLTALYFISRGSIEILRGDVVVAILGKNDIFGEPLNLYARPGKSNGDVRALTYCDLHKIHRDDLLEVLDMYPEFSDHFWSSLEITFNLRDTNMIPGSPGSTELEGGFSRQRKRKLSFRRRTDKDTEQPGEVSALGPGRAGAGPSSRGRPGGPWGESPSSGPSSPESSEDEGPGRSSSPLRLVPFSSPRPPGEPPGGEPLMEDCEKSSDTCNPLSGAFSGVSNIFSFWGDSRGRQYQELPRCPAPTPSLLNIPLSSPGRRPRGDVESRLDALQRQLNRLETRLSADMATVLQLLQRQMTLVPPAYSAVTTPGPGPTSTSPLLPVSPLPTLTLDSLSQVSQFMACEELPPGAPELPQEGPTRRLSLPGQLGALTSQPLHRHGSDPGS
- Experiment Description: hERG protection against dofetilide inhibition, confirmation, cell-based, thallium flux, duplicate retest, dofetilide IC70 (AID 1835)
- Assay Conditions: hERG cell line, FluxOR thallium flux, dofetilide-blocked; at 10 µM; stronger effect = higher value
In all, about 2,400 compounds went through this assay and about 750 (31%) were called active. The list shows a part of the results.
Numeric answer only, unit % assumed.

Q: Look at this compound and give its reported activity increase over dofetilide control, less the hit threshold. CCOc1ccc(C(=O)N/N=C/c2cc([N+](=O)[O-])cs2)cc1
A: 0

Q: Here is the next compound: CSc1nc(C)c2c(n1)N(c1ccc(C(C)C)cc1)CC2
A: -9

Q: Here is the next compound: S=c1nc(C2CCCCC2)n(-c2ccccc2)[nH]1
A: 24

Q: Here is the next compound: CCOC(=O)/C(C)=N/NC(=O)c1cccc([N+](=O)[O-])c1
A: 3

Q: Here is the next compound: CCOC(=O)/C(C)=N/NC(=O)c1ccc([N+](=O)[O-])cc1
A: 17

Q: Here is the next compound: O=C(NC(=S)Nc1cccc(Cl)c1)c1cncc(Br)c1
A: -10

Q: Here is the next compound: O=c1c(O)c(-c2cccs2)oc2ccc(Cl)cc12
A: 92

Q: Here is the next compound: Cc1ccc(N2C(=O)c3ccccc3C2(O)c2ncc[nH]2)cc1 (stereo not drawn)
A: -18

Q: Here is the next compound: COCCn1c(SCC(=O)Nc2cc(C)cc(C)c2)nc2ccccc2c1=O
A: -9

Q: Here is the next compound: CC(C)NC(=O)Nc1n[nH]c(Nc2ccc(Cl)cc2)n1
A: -1

Q: Here is the next compound: CC1CCCC(NC(=S)NC(=O)c2cncc(Br)c2)C1C (stereo not drawn)
A: -10

Entry source: PubChem BioAssay AID1835
